System: MDA-MB-231 breast
METHOD_DESCRIPTION: NCI-60 one-dose screen, 48 h (100 = growth as untreated, 0 = no growth, -100 = all killed)
CONDITION_NOTES: 10 µM unless noted
About 83,000 compounds went through this panel and 20% of them were active in at least one assay; those are over-represented in the sample as a whole.
REPORTED_PROPERTY: growth (%)
Numbers only here, please. The scale is %.

COc1cc(/C=C/c2cc(/C=C/c3ccc(O)c(OC)c3)n(C(=O)c3ccccc3Br)n2)ccc1O :: 39.7
O=[N+]([O-])c1ccc(N=Nc2c(NNc3ccc([N+](=O)[O-])cn3)cc(S(=O)(=O)O)c3ccccc23)nc1 :: 57

INPUT: Report growth under test system MDA-MB-231 breast for N/C(=N\OC(=O)c1ccccc1)C(Cc1ccccc1)C(=O)NOC(=O)c1ccccc1 (centres undefined) .
OUTPUT: 70.7

INPUT: With MDA-MB-231 breast as the test system, provide measured growth for this compound: "COc1cc(NC(=O)CSc2nc3ccc(Cl)cc3c(=O)n2Cc2ccccc2)cc(OC)c1OC"
OUTPUT: 44.6

INPUT: Please indicate recorded growth of O=C1/C(=C/N2N=C(c3ccc(Cl)cc3)CC2c2ccccc2O)SC(=S)N1c1cccc(C(F)(F)F)c1 (centres undefined) measured with MDA-MB-231 breast.
OUTPUT: 44

INPUT: Provide growth, recorded with MDA-MB-231 breast, of Cc1nn(-c2ccccc2)c2nc3c(nc12)C1=NCCN1C(c1ccc(Cl)cc1)N3 (centres undefined)
OUTPUT: 66.8

INPUT: State recorded growth with MDA-MB-231 breast, entry "Clc1ccc(-c2cnc3nonc3n2)s1" , no comment.
OUTPUT: 85.2

INPUT: Provide growth, recorded with MDA-MB-231 breast, of "Cc1ccc(NC(=O)c2sc3nc4c(cc3c2N)C(=O)CCC4)cc1Cl"
OUTPUT: 113

INPUT: Give growth only, for "O=C(Nc1cccc(N=Cc2c(O)ccc3ccccc23)c1)c1ccccc1" , using MDA-MB-231 breast data.
OUTPUT: 94.1

====

Test system: CCRF-CEM leukemia
METHOD_DESCRIPTION: NCI-60 one-dose screen, 48 h (100 = growth as untreated, 0 = no growth, -100 = all killed)
CONDITION_NOTES: 10 µM unless noted
About 83,000 compounds went through this panel and 20% of them were active in at least one assay; those are over-represented in the sample as a whole.
growth overview
Write the answer as a number in %, unit excluded.

CC(C)(C)c1nn(-c2ccccc2)c2c1C(=O)CSC(c1ccc3c(c1)OCO3)N2 (stereo not given) :: 98.1
CCC1=CC2CN(C1)Cc1c([nH]c3ccccc13)[C@@](C(=O)OC)(c1cc3c(cc1OC)N(C)[C@H]1[C@@](O)(C(=O)OC)[C@H](OC(C)=O)[C@]4(CC)C=CCN5CC[C@]31[C@@H]54)C2 (stereo not given in full) :: 19.1
C(=Nc1ccc(-c2ccc(N=Cc3ccccc3)cc2)cc1)c1ccccc1 :: 88.3
COc1cc(NCC(O)CN(CC(C)C)CC(C)C)c2ncccc2c1 (stereo not given) :: 57.8
Cc1ccc(Nc2cccc3ccccc23)cc1 :: 84.8

INPUT: Return growth (reported value) for this compound: "NS(=O)(=O)c1ccc(CCn2c(SCC(=O)N/N=C/c3ccccc3O)nc3ccccc3c2=O)cc1"
OUTPUT: 18.7

INPUT: Give growth for "O=C(NNC(=O)c1cccc(Cl)c1)c1ccccc1"
OUTPUT: 98.4

INPUT: Look up and state reported growth for "CC(=O)Nc1ccc(/C=N/N2CCCCCC2)cc1"
OUTPUT: 106

INPUT: Give me measured growth, please, for this compound: "CN(C)CCCN1c2ccccc2CCc2ccccc21"
OUTPUT: 97.6

INPUT: Assign growth to the following record: "COc1ccc2[nH]cc(C3(c4c[nH]c5ccc(OC)cc45)C(=O)Nc4ccc(Cl)cc43)c2c1"
OUTPUT: 15.8
